Numbers sourced from patent US20200040103A1.

# system: recombinant human KLK5 (human) (UniProt Q9Y337)
# Sequence (Q9Y337 67-293): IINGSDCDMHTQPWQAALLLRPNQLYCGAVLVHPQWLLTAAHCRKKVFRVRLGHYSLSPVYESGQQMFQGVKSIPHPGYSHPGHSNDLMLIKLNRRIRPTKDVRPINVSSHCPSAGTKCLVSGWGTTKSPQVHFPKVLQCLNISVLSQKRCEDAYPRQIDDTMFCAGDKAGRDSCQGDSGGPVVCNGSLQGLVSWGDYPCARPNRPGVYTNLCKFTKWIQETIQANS
# method_description: pro-KLK1 LC/MS assay, 0.5 nM KLK5, 300 nM pro-KLK1; box column 1 of 3; no unit printed, nM per text
measurement_type: pIC50
// field semantics: pIC50 = negative decimal log of concentration (mol/L)

Solved entries (count: 3):
INPUT: If you can, please state the reported pIC50 value of 9F2 (antibody, V domains shown) VH: QSVKESEGGLFKPTDNLTLTCTVSGFSLSSYGVSWVRQAPGNGLEYIGFIGSGGSPYYASWAKSRSTITRNTNLNTVTLKMTSLTAADTATYFCARDDVGGGKSLDIWGPGTLVTVSS VL: NIVMTQTPASVEVAVGGTVIIKCQASQSISNYLSWYHQKSGQRPRLLIYSASTLASGVPSRFKGSGSGTQFTLTISDLECADAATYYCHQDYTSNSVDNTFGGGTEVVVK .
OUTPUT: 9.97

INPUT: If you can, please state the reported pIC50 value of 9H5 (antibody, V domains shown) VH: QSVKESEGGLFKPTDNLTLTCTVSGFSLSSYGVSWVRQAPGNGLEYIGFIGSGGFAYYASWAKSRSTITRNTNLNTVTLKMTSLTAADTATYFCARDDVGGGKSLDIWGPGTVVTVSV VL: NIVMTQTPASVEAAVGGTVTINCQASQSISSYLSWYQQKSGQRPKLLIFSASTLASGVPSRFTGSGSGTQFTLTISDLQCADAATYYCHQDYTSSNVDNTFGGGTEVVVK .
OUTPUT: 9.86

INPUT: If you can, please state the reported pIC50 value of 2-3F4 (antibody, V domains shown) VH: QSVEESRGGLIKPTDTLTLTCTASGFSLSNYGVSWVRQAPGNGLEYIGFIGYGGSTYYASWAKSRSTITRNTNLNTVTLQMTSLTAADTATYFCARLCGVDCADALDSWGPGTLVTVSS VL: AYYMTQTPASVEVAVGGTVTIKCQASEDIGSYCSWYQQKPGQPPKLLIYDASDLASGVPSRFKGSGSGTDFTLTISGVQCDDAATYYCQQDYTGNNVDNTFGGGSEVVVK .
OUTPUT: 10.27

---
INPUT: If you can, please state the reported pIC50 value of 8F5 (antibody, V domains shown) VH: QSVKESEGGLFKPTDTLTLTCTVSGFSLSSYPISWVRQAPGNGLEWIGYITSEYGVAYYATWAESRSTITRNTNLNTVTLKMTSLTAADTATYFCVRENPTYGYAYDAWGPGTLVTVSS VL: AYDLTQTPASVEAAVGGTVTINCQASESIGNELSWYQQKSGQPPKLLIYQASTLASGVPSRFKGSGSGTDFTLTISDLECADAATYYCAQGFSSSGVENVFGGGTEVVVK .
OUTPUT: 10.16
